Recorded values, source patent US20220396617A1.

# SYSTEM_TESTED: T1, TIGIT (ECD)-hFc (human, UniProt Q495A1 22-141)
# T1 construct: bought protein; also called recombinant human TIGIT (ECD)-hFc; Cat #: 10917-H02H, Sino Biological; not shown: human Fc (hFc) of the bought protein
# T1 sequence: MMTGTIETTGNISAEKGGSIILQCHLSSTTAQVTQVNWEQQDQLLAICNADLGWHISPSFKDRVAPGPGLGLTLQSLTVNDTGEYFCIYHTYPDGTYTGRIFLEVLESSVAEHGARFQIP
# PROTOCOL_NOTES: FACS blocking assay (protocol of Example 7): serially diluted antibody pre-incubated with TIGIT (ECD)-hFc, then binding of TIGIT (ECD)-hFc to A549/human PVR cells measured; blocked ligand: human PVR [A]
Each record here notes measured IC50 (read off the curve).
MEASURED_ENDPOINT: IC50 (read off the curve)

BINDER	MEASUREMENT
70E11-VH2VL3 (antibody, human IgG1, kappa, V domains shown, humanized, human IgG1/kappa) VH: QVQLVQSGAEVKKPGASVKVSCKASGYTFTSYNVHWVRQAPGQGLEWMGTIYPGNLATSYNQKFKGRVTLTADTSTSTVYMELSSLRSEDTAVYYCARSGTMDYWGQGTTVTVSS VL: EIVLTQSPGTLSLSPGERATLSCRASSSISSTYLHWYQQKPGASPKLLIYNTQNLASGIPDRFSGSGSGTSYTLTISRLEPEDFAVYYCQQFGGYPLITFGAGTKLELKR	~4 µg/mL
70E11-VH5VL4 (antibody, human IgG1, kappa, V domains shown, humanized, human IgG1/kappa) VH: QVQLVQSGAEVKKPGASVKVSCKASGYTFTSYNVHWVKQTPGQGLEWIGTIYPGNLATSYNQKFKGKATLTADKSTSTVYMELSSLRSEDTAVYYCARSGTMDYWGQGTTVTVSS VL: EIVLTQSPGTLSLSPGERATMTCRASSSISSTYLHWYQQKPGASPKLLIYNTQNLASGVPARFSGSGSGTSYTLTISRLEPEDFAVYYCQQFGGYPLITFGAGTKLELKR	~4 µg/mL
70E11-VH2VL2 (antibody, human IgG1, kappa, V domains shown, humanized, human IgG1/kappa) VH: QVQLVQSGAEVKKPGASVKVSCKASGYTFTSYNVHWVRQAPGQGLEWMGTIYPGNLATSYNQKFKGRVTLTADTSTSTVYMELSSLRSEDTAVYYCARSGTMDYWGQGTTVTVSS VL: EIVLTQSPGTLSLSPGERATLSCRASSSISSTYLHWYQQKPGQAPKLLIYNTQNLASGIPDRFSGSGSGTSFTLTISRLEPEDFAVYYCQQFGGYPLITFGAGTKLELKR	~4 µg/mL
